Target: V122I TTR (Homo sapiens, UniProt P02766, V142I)
Construct: 1-127; His6 (N); TEV cleavage site (N); made in house; host or cells: E. coli BL21 (DE3)
Assay: Inhibition of mechano-enzymatic fibrillogenesis (ThT)
Type: biochemical
Conditions: supplementary CSV; residual V122I TTR aggregation, equimolar ligand
property name: Agg (%)

1. O=C(O)CCc1cc(Cl)c(OCCOCCCCOc2c(Cl)cc(Nc3ccccc3C(=O)O)cc2Cl)c(Cl)c1 ... 4.4
2. O=C(O)CCc1cc(Cl)c(OCOCCCOc2c(Cl)cc(Nc3ccccc3C(=O)O)cc2Cl)c(Cl)c1 ... 12
3. O=C(O)CCc1cc(Cl)c(OCCCOCCOc2c(Cl)cc(Nc3cnncc3C(=O)O)cc2Cl)c(Cl)c1 ... 13
4. O=C(O)CCc1cc(Cl)c(OCC/C=C/CCOc2c(Cl)cc(Nc3ccccc3C(=O)O)cc2Cl)c(Cl)c1 ... 13
5. O=C(O)CCc1cc(Cl)c(OCCCOCCOc2c(Cl)cc(Nc3ccnnc3C(=O)O)cc2Cl)c(Cl)c1 ... 11
6. O=C(O)CCc1cc(Cl)c(OCCCOCCOc2c(Cl)cc(Nc3ccncc3C(=O)O)cc2Cl)c(Cl)c1 ... 12
7. O=C(O)c1ccccc1Nc1cc(Cl)c(OCCCCCCCOc2c(Cl)cc(Nc3ccccc3C(=O)O)cc2Cl)c(Cl)c1 [mds84, reference compound] ... 2.4

====

Molecular target: wild-type TTR in normal human plasma (Homo sapiens, UniProt P02766)
Construct: TTR in whole plasma, from individuals homozygous for wild-type TTR; from tissue; host or cells: whole human plasma from individuals homozygous for wild-type TTR
Experiment: Displacement of 125I-T4 from TTR in normal human plasma
Type: binding
Conditions: normal human plasma
property name: binding to TTR in plasma, in words

1. O=C(O)COCCOCCOCCOc1c(Cl)cc(Nc2ccccc2C(=O)O)cc1Cl [B5] ... reduced binding
2. O=C(O)CCc1cc(Cl)c(OCOCCCOc2c(Cl)cc(Nc3ccccc3C(=O)O)cc2Cl)c(Cl)c1 [B8] ... reduced binding
3. O=C(O)CCOCCCOCCCOCCCOc1c(Cl)cc(Nc2ccccc2C(=O)O)cc1Cl [B6] ... reduced binding

====

Below, each entry is listed alongside its reported Agg (%).
Target: V122I TTR (Homo sapiens, UniProt P02766, V142I)
Construct: 1-127; His6 (N); TEV cleavage site (N); made in house; host or cells: E. coli BL21 (DE3)
Test: Inhibition of mechano-enzymatic fibrillogenesis (ThT)
Type: biochemical
Conditions: residual V122I TTR fibrillar aggregation with equimolar ligand, ThT emission normalized to protein without ligand; mean ± SD
property name: Agg (%)

1. O=C(O)CCc1ccc(OCCC(O)C(O)CCOc2c(Cl)cc(Nc3ccccc3C(=O)O)cc2Cl)c(Cl)c1 (stereo not drawn) [B21] ... 15
2. O=C(O)CCc1cc(Cl)c(OCCCOCCOc2c(Cl)cc(Nc3ccccc3C(=O)O)cc2Cl)c(Cl)c1 [B1] ... 5.2
3. O=C(O)CCc1cc(Cl)c(OCCCOCCOc2c(Cl)cc(Nc3ccnnc3C(=O)O)cc2Cl)c(Cl)c1 [B25] ... 11
4. O=C(O)CCc1cc(Cl)c(OCCCOCCOc2c(Cl)cc(Nc3cnccc3C(=O)O)cc2Cl)c(Cl)c1 [B26] ... 4.2
5. O=C(O)CCc1cc(Cl)c(OCC[C@@H](O)[C@H](O)CCOc2c(Cl)cc(Nc3ccccc3C(=O)O)cc2Cl)c(Cl)c1 [B4A] ... 3.3
6. O=C(O)CCc1cc(Cl)c(OCCOCCCCOc2c(Cl)cc(Nc3ccccc3C(=O)O)cc2Cl)c(Cl)c1 [B2] ... 4.4
7. O=C(O)CCc1cc(Cl)c(OCC[C@@H](O)[C@H](O)CCOc2ccc(Nc3ccccc3C(=O)O)cc2Cl)c(Cl)c1 [B20] ... 11
8. O=C(O)CCOCCCOCCCOCCCOc1c(Cl)cc(Nc2ccccc2C(=O)O)cc1Cl [B6] ... 12
9. O=C(O)CCc1cc(Cl)c(OCOCCCOc2c(Cl)cc(Nc3ccccc3C(=O)O)cc2Cl)c(Cl)c1 [B8] ... 12

The reported numbers originate from paper PMC12169680.
